Items are presented alongside their recorded Frequency (%).
# assay details: in vivo phage display selection (4 rounds) with CSF sampling, sequencing of CSF recovered phage clones
# Set-up: species or system rat
# recorded conditions: frequency of each peptide related to the 924 total sequencing runs; CSF, after 4 rounds of in vivo selection in rats
property measured: Frequency (%)

1) 35 (RPRAQGAL; Brain targeting peptide) [compound 35]: 0.2
2) 16 (DVAKVS; Brain targeting peptide) [compound 16]: 1.0
3) 29 (LRPRGAFQRRDFKL; Brain targeting peptide) [compound 29]: 0.3
4) 24 (TWLFSLG; Brain targeting peptide) [compound 24]: 0.5

---

Recorded Frequency (%) for the following substances
# assay details: in vivo phage display selection (4 rounds) with CSF sampling, sequencing of CSF recovered phage clones
# Parameters: species or system rat
# recorded conditions: frequency of each peptide related to the 924 total sequencing runs; CSF, after 4 rounds of in vivo selection in rats
property measured: Frequency (%)

1. 6 (GRPQKINGARVC; Brain targeting peptide) [compound 6]: 4.3
2. 9 (IGTLTT; Brain targeting peptide) [compound 9]: 2.8
3. 1 (LYVLHSRGLWGFKL; Brain targeting peptide) [compound 1]: 15.9
4. 13 (DAAESVLVGTVR; Brain targeting peptide) [compound 13]: 1.7
5. 7 (MRWFFSHASQGR; Brain targeting peptide) [compound 7]: 3.1

---

# assay details: in vivo phage display selection (4 rounds) with CSF sampling, sequencing of CSF recovered phage clones
# Set-up: species or system rat
# recorded conditions: frequency of each peptide related to the 924 total sequencing runs; CSF, after 4 rounds of in vivo selection in rats
property measured: Frequency (%)

1) 28 (GCASPASTSFHS; Brain targeting peptide) [compound 28]: 0.3
2) 31 (FLIQWGAVLSRG; Brain targeting peptide) [compound 31]: 0.3
3) 21 (WGCNGTEWRGLLGIKL; Brain targeting peptide) [compound 21]: 0.7
4) 12 (ISNRSHKGLMVG; Brain targeting peptide) [compound 12]: 1.8
5) 18 (DPQILMGVLRSIRGFGVKL; Brain targeting peptide) [compound 18]: 0.9

---

# assay details: in vivo phage display selection (4 rounds) with CSF sampling, sequencing of CSF recovered phage clones
# Parameters: species or system rat
# recorded conditions: CSF recovered phage clones after 4 rounds of in vivo selection in rats; 924 sequencing in total
Entries annotated with measured Reads
property measured: Reads

1) 9 (IGTLTT; Brain targeting peptide) [compound 9]: 22
2) 10 (YNQSLLQGYRYW; Brain targeting peptide) [compound 10]: 21
3) 20 (SGSGIGLDRWRV; Brain targeting peptide) [compound 20]: 7
4) 21 (WGCNGTEWRGLLGIKL; Brain targeting peptide) [compound 21]: 6

---

# assay details: in vivo phage display selection (4 rounds) with CSF sampling, sequencing of CSF recovered phage clones
# Set-up: species or system rat
# recorded conditions: frequency of each peptide related to the 924 total sequencing runs; CSF, after 4 rounds of in vivo selection in rats
property measured: Frequency (%)

1) 14 (YAWGGGWVLQWF; Brain targeting peptide) [compound 14]: 1.6
2) 33 (TAVFSALSMLRG; Brain targeting peptide) [compound 33]: 0.2
3) 3 (GFVRFRLSNTR; Brain targeting peptide) [compound 3]: 12.4

---

# assay details: in vivo phage display selection (4 rounds) with CSF sampling, sequencing of CSF recovered phage clones
# Parameters: species or system rat
# recorded conditions: CSF recovered phage clones after 4 rounds of in vivo selection in rats; 924 sequencing in total
One threshold, 5, splits the recorded Reads values: lower ones are Satisfied, equal or higher ones are Not satisfied.

1. 18 (DPQILMGVLRSIRGFGVKL; Brain targeting peptide) [compound 18]: Not satisfied
2. 14 (YAWGGGWVLQWF; Brain targeting peptide) [compound 14]: Not satisfied
3. 15 (YSMVFVGIKL; Brain targeting peptide) [compound 15]: Not satisfied
4. 3 (GFVRFRLSNTR; Brain targeting peptide) [compound 3]: Not satisfied
5. 33 (TAVFSALSMLRG; Brain targeting peptide) [compound 33]: Satisfied
6. 24 (TWLFSLG; Brain targeting peptide) [compound 24]: Satisfied
7. 28 (GCASPASTSFHS; Brain targeting peptide) [compound 28]: Satisfied
8. 4 (KVAWRVFSLFWK; Brain targeting peptide) [compound 4]: Not satisfied
